Cited source for all entries: the supplement of paper PMC10065799

biological target: Fyn (UniProt P06241); test: phosphorylation enrichment, bacterial display (enrichment ratio); higher = better substrate or ligand; peptides without Tyr show the background;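 further: 11-residue human phosphosite peptides and single-mutation variants displayed on the E. coli surface, counted by deep sequencing, each peptide's frequency after selection divided by its frequency in the unselected input library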;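 further: frequency after pTyr selection over input frequency; kinase dosed for 20-30% of maximal phosphorylation in three min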
Sequence (P06241 whole entry, looked up): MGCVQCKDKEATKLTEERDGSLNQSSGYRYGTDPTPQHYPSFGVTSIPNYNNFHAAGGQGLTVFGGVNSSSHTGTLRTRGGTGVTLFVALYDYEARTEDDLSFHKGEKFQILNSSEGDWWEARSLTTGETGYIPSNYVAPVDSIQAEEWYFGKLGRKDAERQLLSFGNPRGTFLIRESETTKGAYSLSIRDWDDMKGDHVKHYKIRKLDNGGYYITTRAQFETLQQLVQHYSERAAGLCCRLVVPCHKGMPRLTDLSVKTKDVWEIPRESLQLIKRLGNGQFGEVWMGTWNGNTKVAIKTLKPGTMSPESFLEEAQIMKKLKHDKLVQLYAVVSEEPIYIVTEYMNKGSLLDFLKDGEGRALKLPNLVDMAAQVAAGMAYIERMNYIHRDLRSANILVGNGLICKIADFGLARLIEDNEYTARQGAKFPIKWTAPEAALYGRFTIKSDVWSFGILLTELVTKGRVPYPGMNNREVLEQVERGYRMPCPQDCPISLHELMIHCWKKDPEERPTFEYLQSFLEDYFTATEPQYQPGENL
Readout name: phosphorylation enrichment

[
  {
    "Monomer sequence": "QYQEKYKQMEQ [HCN4_Y531_V534M]",
    "System tested": "Fyn (UniProt P06241)",
    "Readout name": "phosphorylation enrichment",
    "Observed": 0.547
  },
  {
    "Monomer sequence": "FRSSLYLLMET [MYO5C_Y633]",
    "System tested": "Fyn (UniProt P06241)",
    "Readout name": "phosphorylation enrichment",
    "Observed": 0.473
  },
  {
    "Monomer sequence": "SSSAIYDNPNL [DCP1B_Y191]",
    "System tested": "Fyn (UniProt P06241)",
    "Readout name": "phosphorylation enrichment",
    "Observed": 8.1
  },
  {
    "Monomer sequence": "SKQGKYLNWDA [ATM_Y54]",
    "System tested": "Fyn (UniProt P06241)",
    "Readout name": "phosphorylation enrichment",
    "Observed": 0.396
  },
  {
    "Monomer sequence": "QKFMAYLSQGG [HLCS_Y236]",
    "System tested": "Fyn (UniProt P06241)",
    "Readout name": "phosphorylation enrichment",
    "Observed": 1.2
  },
  {
    "Monomer sequence": "QFQEKYKQMEQ [HCN4_Y531_V534M_YF]",
    "System tested": "Fyn (UniProt P06241)",
    "Readout name": "phosphorylation enrichment",
    "Observed": 0.93
  },
  {
    "Monomer sequence": "GKFRMYVAVWT [F13A1_Y161]",
    "System tested": "Fyn (UniProt P06241)",
    "Readout name": "phosphorylation enrichment",
    "Observed": 0.377
  },
  {
    "Monomer sequence": "VGTTAYMAPEA [IRAK4_Y354]",
    "System tested": "Fyn (UniProt P06241)",
    "Readout name": "phosphorylation enrichment",
    "Observed": 0.407
  },
  {
    "Monomer sequence": "SHNKFYMLVAR [MFSD8_Y134_YF]",
    "System tested": "Fyn (UniProt P06241)",
    "Readout name": "phosphorylation enrichment",
    "Observed": 0.452
  },
  {
    "Monomer sequence": "DGNTRYSTFSE [TKTL1_Y318_D315N]",
    "System tested": "Fyn (UniProt P06241)",
    "Readout name": "phosphorylation enrichment",
    "Observed": 0.319
  },
  {
    "Monomer sequence": "HAVEDYQAIVD [CCT7_Y263_T259A]",
    "System tested": "Fyn (UniProt P06241)",
    "Readout name": "phosphorylation enrichment",
    "Observed": 0.792
  },
  {
    "Monomer sequence": "LFFFSYLLKNH [PTEN_Y180_V175L_YF]",
    "System tested": "Fyn (UniProt P06241)",
    "Readout name": "phosphorylation enrichment",
    "Observed": 0.346
  },
  {
    "Monomer sequence": "GRSTFYWPRPR [GAGE12J_Y10_YF]",
    "System tested": "Fyn (UniProt P06241)",
    "Readout name": "phosphorylation enrichment",
    "Observed": 0.474
  },
  {
    "Monomer sequence": "SEKISYVFMKR [SSX7_Y48_L43S_YF]",
    "System tested": "Fyn (UniProt P06241)",
    "Readout name": "phosphorylation enrichment",
    "Observed": 0.436
  },
  {
    "Monomer sequence": "PRARTYCYKQE [KLHDC9_Y175_S171R]",
    "System tested": "Fyn (UniProt P06241)",
    "Readout name": "phosphorylation enrichment",
    "Observed": 0.527
  },
  {
    "Monomer sequence": "LVSCAYQMARG [FGFR1_Y605_V607M]",
    "System tested": "Fyn (UniProt P06241)",
    "Readout name": "phosphorylation enrichment",
    "Observed": 0.589
  },
  {
    "Monomer sequence": "LENSTYQFIHV [CRB1_Y760_R764H_YF]",
    "System tested": "Fyn (UniProt P06241)",
    "Readout name": "phosphorylation enrichment",
    "Observed": 3.24
  },
  {
    "Monomer sequence": "KQRKEYMHRWQ [IQGAP2_Y710_R714W]",
    "System tested": "Fyn (UniProt P06241)",
    "Readout name": "phosphorylation enrichment",
    "Observed": 0.523
  },
  {
    "Monomer sequence": "RLPINYTTRRI [LAMA2_Y2894_G2889R]",
    "System tested": "Fyn (UniProt P06241)",
    "Readout name": "phosphorylation enrichment",
    "Observed": 0.35
  },
  {
    "Monomer sequence": "RPFRPYIIRGM [LRP5_Y1531_YF]",
    "System tested": "Fyn (UniProt P06241)",
    "Readout name": "phosphorylation enrichment",
    "Observed": 0.611
  },
  {
    "Monomer sequence": "SVTCTNSPALN [TP53_Y126_Y126N]",
    "System tested": "Fyn (UniProt P06241)",
    "Readout name": "phosphorylation enrichment",
    "Observed": 0.495
  },
  {
    "Monomer sequence": "MSGDVYSTDFF [NTRK2_Y702_R699G_YF]",
    "System tested": "Fyn (UniProt P06241)",
    "Readout name": "phosphorylation enrichment",
    "Observed": 5.33
  },
  {
    "Monomer sequence": "RLNCIYFKDQT [RS1_Y165_W163C_YF]",
    "System tested": "Fyn (UniProt P06241)",
    "Readout name": "phosphorylation enrichment",
    "Observed": 0.59
  },
  {
    "Monomer sequence": "IIRRLYLKWHP [SACS_Y4333]",
    "System tested": "Fyn (UniProt P06241)",
    "Readout name": "phosphorylation enrichment",
    "Observed": 0.535
  },
  {
    "Monomer sequence": "VMTSKYRGGGG [HBA1_Y141_L137M]",
    "System tested": "Fyn (UniProt P06241)",
    "Readout name": "phosphorylation enrichment",
    "Observed": 0.378
  },
  {
    "Monomer sequence": "RSHLPYDVTPE [IQGAP3_Y1098]",
    "System tested": "Fyn (UniProt P06241)",
    "Readout name": "phosphorylation enrichment",
    "Observed": 0.848
  },
  {
    "Monomer sequence": "LLASGYDSPIN [ABLIM1_Y638_R637G]",
    "System tested": "Fyn (UniProt P06241)",
    "Readout name": "phosphorylation enrichment",
    "Observed": 0.529
  },
  {
    "Monomer sequence": "HEKRAYICAHP [ACAD9_Y611_L606H]",
    "System tested": "Fyn (UniProt P06241)",
    "Readout name": "phosphorylation enrichment",
    "Observed": 0.447
  },
  {
    "Monomer sequence": "IFLGAYDRFLP [SLC22A5_Y486_V481I_YF]",
    "System tested": "Fyn (UniProt P06241)",
    "Readout name": "phosphorylation enrichment",
    "Observed": 2.45
  }
]
